Biological target: EPHA3 (Homo sapiens)
Sequence (P29320 21-983): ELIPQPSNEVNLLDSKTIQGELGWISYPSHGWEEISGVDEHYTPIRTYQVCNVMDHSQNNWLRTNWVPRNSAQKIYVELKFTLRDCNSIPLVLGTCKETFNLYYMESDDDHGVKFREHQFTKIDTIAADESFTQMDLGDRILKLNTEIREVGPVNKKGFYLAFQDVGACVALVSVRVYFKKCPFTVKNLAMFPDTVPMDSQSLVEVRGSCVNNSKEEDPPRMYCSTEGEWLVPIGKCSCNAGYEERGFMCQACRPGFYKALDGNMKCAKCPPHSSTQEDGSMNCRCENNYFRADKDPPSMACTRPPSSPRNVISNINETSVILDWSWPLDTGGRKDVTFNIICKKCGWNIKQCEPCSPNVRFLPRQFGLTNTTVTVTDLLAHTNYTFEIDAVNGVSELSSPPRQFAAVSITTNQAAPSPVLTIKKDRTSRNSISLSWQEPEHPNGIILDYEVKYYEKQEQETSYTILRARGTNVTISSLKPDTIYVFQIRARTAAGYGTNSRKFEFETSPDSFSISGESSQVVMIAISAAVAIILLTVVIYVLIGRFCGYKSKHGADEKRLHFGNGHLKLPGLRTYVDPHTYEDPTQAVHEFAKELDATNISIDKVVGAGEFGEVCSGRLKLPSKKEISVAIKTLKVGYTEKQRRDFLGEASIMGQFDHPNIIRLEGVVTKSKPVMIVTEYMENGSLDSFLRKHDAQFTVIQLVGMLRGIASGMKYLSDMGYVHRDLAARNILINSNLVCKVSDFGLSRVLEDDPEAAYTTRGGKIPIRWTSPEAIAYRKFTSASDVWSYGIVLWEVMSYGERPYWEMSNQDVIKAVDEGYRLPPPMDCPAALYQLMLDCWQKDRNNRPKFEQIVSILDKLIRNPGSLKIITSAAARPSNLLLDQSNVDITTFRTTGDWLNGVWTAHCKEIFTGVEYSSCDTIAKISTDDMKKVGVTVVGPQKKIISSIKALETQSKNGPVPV
ASSAY_READOUT: IC50 (nM)
Write the value in nM as a bare number.

Qu. Name the recorded IC50 of the molecule listed here: Cc1cc(-c2ccn3c(-c4ccc(CC(=O)Nc5cccc(C(F)(F)F)c5)c(F)c4)cnc3c2)ccn1
Ans. 99.8
